Data credit: ChEMBL document CHEMBL2163314

# System: Saccharomyces cerevisiae
# procedure_text: Inhibition of bakers yeast alpha-glucosidase at100 uM
The source made the active and inactive calls. The calls are words filed in the database; no cut-off is given here.
parameter_measured: inhibition

// solved cases for inhibition follow
INSERT INTO results (smiles_text, target_system, parameter_measured, experimental_value) VALUES
  ('CCCCCCCCCN(CCCCCCCCC)[C@@H]1[C@H](O)[C@H](O)[C@@H](O)[C@H](O)[C@H]1O.Cl', 'Saccharomyces cerevisiae', 'inhibition', 'inactive'),
  ('CCCCCCCCCN[C@H]1[C@H](O)[C@@H](O)[C@H](O)[C@@H](O)[C@H]1OCCCCCCCCC.Cl', 'Saccharomyces cerevisiae', 'inhibition', 'inactive'),
  ('CCCCCCCCCN[C@H]1[C@H](O)[C@@H](O)[C@H](O)[C@@H](O)[C@@H]1OC.Cl', 'Saccharomyces cerevisiae', 'inhibition', 'inactive'),
  ('CCCCCCCCCN[C@@H]1[C@H](O)[C@@H](O)[C@H](O)[C@@H](O)[C@@H]1O', 'Saccharomyces cerevisiae', 'inhibition', 'inactive');

Okay, now this molecule:
Input: Quick check: inhibition of CCCCCCCCCN[C@H]1[C@H](O)[C@@H](O)[C@H](O)[C@@H](O)[C@@H]1O ?
Output: inactive

----------
# target_system: Lysosomal acid glucosylceramidase (Homo sapiens)
# Sequence (P04062 whole entry): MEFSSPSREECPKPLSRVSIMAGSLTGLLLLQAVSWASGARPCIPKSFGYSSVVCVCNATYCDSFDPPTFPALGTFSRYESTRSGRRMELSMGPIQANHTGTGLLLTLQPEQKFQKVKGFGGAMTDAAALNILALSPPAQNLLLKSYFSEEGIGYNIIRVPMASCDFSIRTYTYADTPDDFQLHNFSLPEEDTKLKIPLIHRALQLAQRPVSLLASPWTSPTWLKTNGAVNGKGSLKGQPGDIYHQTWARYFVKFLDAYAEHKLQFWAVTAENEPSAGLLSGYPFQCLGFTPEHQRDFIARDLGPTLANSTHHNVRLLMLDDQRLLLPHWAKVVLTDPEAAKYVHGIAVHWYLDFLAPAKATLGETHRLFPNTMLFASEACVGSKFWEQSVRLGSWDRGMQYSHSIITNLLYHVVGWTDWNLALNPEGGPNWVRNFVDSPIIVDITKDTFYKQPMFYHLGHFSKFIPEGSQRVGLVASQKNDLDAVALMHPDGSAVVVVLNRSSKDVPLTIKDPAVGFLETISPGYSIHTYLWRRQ
# procedure_text: Binding affinity to recombinant imiglucerase using 4-methylumbelliferyl-beta-D-glucopyranoside as substrate preincubated for 30 mins before substrate addition by Dixon plot assay
# maps each entry to its pKi
In simple prose, pKi is minus the logarithm base ten of a concentration in moles per litre.

INSERT INTO results (smiles_text, parameter_measured, experimental_value) VALUES
  ('CCCCCCCCCN[C@H]1[C@H](O)[C@@H](O)[C@H](O)[C@@H](O)[C@@H]1O', 'pKi', 5.72),
  ('CCCCCCCCCN[C@H]1[C@H](O)[C@@H](O)[C@H](O)[C@@H](O)[C@H]1OC.Cl', 'pKi', 7.28),
  ('CCCCCCCCCN[C@@H]1[C@H](O)[C@H](O)[C@@H](O)[C@H](O)[C@H]1O.Cl', 'pKi', 7.49),
  ('CCCCCCCCCO[C@H]1[C@@H](N)[C@H](O)[C@@H](O)[C@H](O)[C@H]1O.Cl', 'pKi', 6.89),
  ('CCCCCCCCCN[C@H]1[C@H](O)[C@@H](O)[C@H](O)[C@@H](O)[C@@H]1OC.Cl', 'pKi', 5.80),
  ('CCCCCCCCCN[C@H]1[C@H](O)[C@@H](O)[C@H](O)[C@@H](O)[C@@H]1OCCCCCCCCC.Cl', 'pKi', 6.55),
  ('CCCCCCCCCN[C@H]1[C@H](O)[C@@H](O)[C@H](O)[C@@H](O)[C@H]1OCCCCCCCCC.Cl', 'pKi', 9.00),
  ('CCCCCCCCCN(CCCCCCCCC)[C@@H]1[C@H](O)[C@H](O)[C@@H](O)[C@H](O)[C@H]1O.Cl', 'pKi', 6.09);

Kindly consider the entry below.
Input: Quick one: pKi of CCCCCCCCCN[C@@H]1[C@H](O)[C@@H](O)[C@H](O)[C@@H](O)[C@@H]1O ?
Output: 4.75

----------
# target_system: UniProtKB P04062
# procedure_text: Competitive inhibition of recombinant Imiglucerase using 4-methylumbelliferyl-beta-D-glucopyranoside as substrate preincubated for 30 mins before substrate addition at pH 7.0 Lineweaver-Burk plot assay
Measured log10(IC50) by item
Log10 applied to IC50; unit prior to transform: nM.

Would you please look over these solved cases?
INSERT INTO measurements (smiles_text, experimental_value) VALUES
  ('CCCCCCCCCN[C@@H]1[C@H](O)[C@@H](O)[C@H](O)[C@@H](O)[C@@H]1O', 4.40),
  ('CCCCCCCCCN[C@H]1[C@H](O)[C@@H](O)[C@H](O)[C@@H](O)[C@@H]1OC.Cl', 2.83),
  ('CCCCCCCCCN[C@H]1[C@H](O)[C@@H](O)[C@H](O)[C@@H](O)[C@H]1OC.Cl', 1.28),
  ('CCCCCCCCCO[C@H]1[C@@H](N)[C@H](O)[C@@H](O)[C@H](O)[C@H]1O.Cl', 2.08),
  ('CCCCCCCCCN[C@H]1[C@H](O)[C@@H](O)[C@H](O)[C@@H](O)[C@@H]1O', 2.89),
  ('CCCCCCCCCN[C@@H]1[C@H](O)[C@H](O)[C@@H](O)[C@H](O)[C@H]1O.Cl', 1.40),
  ('CCCCCCCCCN(CCCCCCCCC)[C@@H]1[C@H](O)[C@H](O)[C@@H](O)[C@H](O)[C@H]1O.Cl', 2.72),
  ('CCCCCCCCCN[C@H]1[C@H](O)[C@@H](O)[C@H](O)[C@@H](O)[C@@H]1OCCCCCCCCC.Cl', 2.23);

From here, focus on the item given below.
Input: What value of log10(IC50) has been reported for the following compound? CCCCCCCCCN[C@H]1[C@H](O)[C@@H](O)[C@H](O)[C@@H](O)[C@H]1OCCCCCCCCC.Cl
Output: 0.70

----------
# Test system: Saccharomyces cerevisiae
# procedure_text: Inhibition of bakers yeast alpha-glucosidase at100 uM
Calls of active or inactive are those of the source. No cut-off for these calls is given here.
parameter_measured: inhibition

INSERT INTO measurements (smiles_text, parameter_measured, experimental_value) VALUES
  ('CCCCCCCCCN[C@H]1[C@H](O)[C@@H](O)[C@H](O)[C@@H](O)[C@H]1OC.Cl', 'inhibition', 'inactive'),
  ('CCCCCCCCCO[C@H]1[C@@H](N)[C@H](O)[C@@H](O)[C@H](O)[C@H]1O.Cl', 'inhibition', 'inactive'),
  ('CCCCCCCCCN[C@H]1[C@H](O)[C@@H](O)[C@H](O)[C@@H](O)[C@@H]1OCCCCCCCCC.Cl', 'inhibition', 'inactive'),
  ('CCCCCCCCCN[C@@H]1[C@H](O)[C@H](O)[C@@H](O)[C@H](O)[C@H]1O.Cl', 'inhibition', 'inactive');

----------
# target_system: Lysosomal acid glucosylceramidase (Homo sapiens)
# procedure_text: Competitive inhibition of recombinant Imiglucerase using 4-methylumbelliferyl-beta-D-glucopyranoside as substrate preincubated for 30 mins before substrate addition at pH 5.2 by Lineweaver-Burk plot assay
parameter_measured: log10 of IC50 (log10 of the value in nM)
Plainly stated, the numbers are log10 of IC50 given in nM.

Answered examples (8):
INSERT INTO results (smiles_text, parameter_measured, experimental_value) VALUES
  ('CCCCCCCCCN(CCCCCCCCC)[C@@H]1[C@H](O)[C@H](O)[C@@H](O)[C@H](O)[C@H]1O.Cl', 'log10 of IC50', 3.24),
  ('CCCCCCCCCN[C@@H]1[C@H](O)[C@@H](O)[C@H](O)[C@@H](O)[C@@H]1O', 'log10 of IC50', 4.72),
  ('CCCCCCCCCO[C@H]1[C@@H](N)[C@H](O)[C@@H](O)[C@H](O)[C@H]1O.Cl', 'log10 of IC50', 2.65),
  ('CCCCCCCCCN[C@H]1[C@H](O)[C@@H](O)[C@H](O)[C@@H](O)[C@@H]1OC.Cl', 'log10 of IC50', 3.64),
  ('CCCCCCCCCN[C@@H]1[C@H](O)[C@H](O)[C@@H](O)[C@H](O)[C@H]1O.Cl', 'log10 of IC50', 1.90),
  ('CCCCCCCCCN[C@H]1[C@H](O)[C@@H](O)[C@H](O)[C@@H](O)[C@H]1OCCCCCCCCC.Cl', 'log10 of IC50', 0.60),
  ('CCCCCCCCCN[C@H]1[C@H](O)[C@@H](O)[C@H](O)[C@@H](O)[C@H]1OC.Cl', 'log10 of IC50', 2.11),
  ('CCCCCCCCCN[C@H]1[C@H](O)[C@@H](O)[C@H](O)[C@@H](O)[C@@H]1OCCCCCCCCC.Cl', 'log10 of IC50', 2.83);

We next turn to a different compound, shown below.
Input: Quick check: log10 of IC50 of CCCCCCCCCN[C@H]1[C@H](O)[C@@H](O)[C@H](O)[C@@H](O)[C@@H]1O ?
Output: 3.59
